src = Sander's compilation of Henry's law constants (doi:10.1002/jsfa.1137)

METHOD_DESCRIPTION: Henry solubility constant Hcp at 310 K (mol/(m3 Pa))
ASSAY_CONDITIONS: reference: van Ruth et al. (2002)
PARAMETER_MEASURED: Henry solubility constant Hcp at 310 K

Example entries and their recorded answers appear below.
> print(dat)
                          compound   value
1      CCCC(C)O (stereo not given)     0.3
2                          CCCCCCO    0.25
3           CSC [dimethyl sulfide]  0.0064
4    CCCCOC(C)=O [butyl ethanoate]   0.028
5  CCCCCCCC(C)O (stereo not given)   0.065

a. CCCCCCC(C)=O
b. CCCO
Prompt line: Compare Henry solubility constant Hcp at 310 K: is it lower for a or for b ? Indicate your choice by writing its label.
Response line: a
(a: 0.029, b: 0.32)

P. CCCCCCCC=O
Q. CC(C)CCO
Prompt line: Lower Henry solubility constant Hcp at 310 K: P or Q ? Mark your answer with the label of the selected entry.
Response line: P
(P: 0.021, Q: 0.33)

1. CCCC(=O)OCC [ethyl butanoate]
2. CCCOC(C)=O [propyl ethanoate]
Prompt line: Param pair: 1 , 2 . Output: the one whose Henry solubility constant Hcp at 310 K is numerically greater. Kindly state the label of the option you pick.
Response line: 2
(2: 0.039, 1: 0.021)

A. CCCCCCCCC(C)=O
B. CCCCCC(C)=O
Prompt line: I'm curious, which of these has a smaller Henry solubility constant Hcp at 310 K number: A or B ? Select an item and report its label.
Response line: A

I. CCCCCCC=O
II. CCOC(C)=O [ethyl ethanoate]
Prompt line: Lower value of Henry solubility constant Hcp at 310 K belongs to which: I or II ? Indicate which entry you chose by stating its label.
Response line: I
